subject.of.test: human PDE2A1 (Homo sapiens (Human))
Sequence (O00408 other isoform, or with tags, fused parts or gaps): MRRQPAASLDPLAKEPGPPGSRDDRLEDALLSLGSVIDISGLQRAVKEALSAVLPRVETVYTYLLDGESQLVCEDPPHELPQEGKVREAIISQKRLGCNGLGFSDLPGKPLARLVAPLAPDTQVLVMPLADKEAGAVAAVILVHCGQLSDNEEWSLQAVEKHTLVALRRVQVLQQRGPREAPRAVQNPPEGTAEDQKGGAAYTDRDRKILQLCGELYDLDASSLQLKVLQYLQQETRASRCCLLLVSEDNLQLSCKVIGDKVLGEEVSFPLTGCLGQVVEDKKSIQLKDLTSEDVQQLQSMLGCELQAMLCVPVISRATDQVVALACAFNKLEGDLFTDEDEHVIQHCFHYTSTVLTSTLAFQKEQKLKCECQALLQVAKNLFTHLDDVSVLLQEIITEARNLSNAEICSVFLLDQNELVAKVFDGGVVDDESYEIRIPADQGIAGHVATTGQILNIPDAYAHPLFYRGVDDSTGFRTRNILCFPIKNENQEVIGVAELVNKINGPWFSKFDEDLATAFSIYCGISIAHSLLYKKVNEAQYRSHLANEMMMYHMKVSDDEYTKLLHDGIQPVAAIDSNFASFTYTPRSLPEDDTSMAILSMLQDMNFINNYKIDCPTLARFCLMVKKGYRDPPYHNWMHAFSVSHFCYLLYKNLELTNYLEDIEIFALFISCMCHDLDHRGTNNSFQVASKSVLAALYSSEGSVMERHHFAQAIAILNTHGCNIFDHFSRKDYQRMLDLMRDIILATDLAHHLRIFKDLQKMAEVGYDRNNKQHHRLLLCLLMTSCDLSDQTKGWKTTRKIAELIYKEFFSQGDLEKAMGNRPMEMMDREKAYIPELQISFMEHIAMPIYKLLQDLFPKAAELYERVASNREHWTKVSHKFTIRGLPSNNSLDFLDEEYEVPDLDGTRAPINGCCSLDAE
protocol.summary: IMAP FP PDE selectivity panel, human PDE2A1
Format: biochemical
details: Human PDE2, Lab B; read-out: Human PDE2 Ki (nM) - Lab B
For each record, check the reported Ki: if it is below 10 nM write T, else write F.

Query: Does the reported Ki of the following compound sit strictly below 10 nM? Cc1nc(C(=O)NC2(c3ccc(OC(F)F)cc3)CC2)cc(=O)[nH]1 [Example 628]
Result: F

Query: Item CC(C)[C@@H](NC(=O)c1cc(=O)[nH]c(-c2ncccn2)n1)c1ccc(OC(F)(F)F)c(F)c1 [Example 74] : Ki beneath 10 nM, strictly?
Result: T

Query: Is Ki strictly under 10 nM for the entry O=C(N[C@@H](CC(F)(F)F)c1ccc(C(F)(F)F)cc1)c1cc(=O)[nH]c(-c2ccccc2)n1 [Example 366] ?
Result: F

Query: is_below(Ki, 10 nM) for COc1ccc(C(C)(C)c2nc(C(=O)N[C@@H](c3ccc(SC(F)(F)F)cc3)C3CC3)cc(=O)[nH]2)cc1 [Example 500] ?
Result: F

Query: Regarding COc1ccc(Cc2nc(C(=O)N[C@@H](c3ccc(SC(F)(F)F)c(F)c3)C(C)C)cc(=O)[nH]2)cc1F [Example 512] , kindly confirm whether its Ki is beneath 10 nM.
Result: T

Query: Is 10 nM strictly greater than the compound's reported Ki? compound: COc1ccc(Cc2nc(C(=O)N[C@@H](c3ccc(C(F)(F)F)c(F)c3)C(C)C)cc(=O)[nH]2)cc1 [Example 472]
Result: T

----------
// values below are reported log10 Ki
subject.of.test: Rhesus PDE2A3 (Macaca mulatta, UniProt B3VTJ2)
Sequence (B3VTJ2 1-941): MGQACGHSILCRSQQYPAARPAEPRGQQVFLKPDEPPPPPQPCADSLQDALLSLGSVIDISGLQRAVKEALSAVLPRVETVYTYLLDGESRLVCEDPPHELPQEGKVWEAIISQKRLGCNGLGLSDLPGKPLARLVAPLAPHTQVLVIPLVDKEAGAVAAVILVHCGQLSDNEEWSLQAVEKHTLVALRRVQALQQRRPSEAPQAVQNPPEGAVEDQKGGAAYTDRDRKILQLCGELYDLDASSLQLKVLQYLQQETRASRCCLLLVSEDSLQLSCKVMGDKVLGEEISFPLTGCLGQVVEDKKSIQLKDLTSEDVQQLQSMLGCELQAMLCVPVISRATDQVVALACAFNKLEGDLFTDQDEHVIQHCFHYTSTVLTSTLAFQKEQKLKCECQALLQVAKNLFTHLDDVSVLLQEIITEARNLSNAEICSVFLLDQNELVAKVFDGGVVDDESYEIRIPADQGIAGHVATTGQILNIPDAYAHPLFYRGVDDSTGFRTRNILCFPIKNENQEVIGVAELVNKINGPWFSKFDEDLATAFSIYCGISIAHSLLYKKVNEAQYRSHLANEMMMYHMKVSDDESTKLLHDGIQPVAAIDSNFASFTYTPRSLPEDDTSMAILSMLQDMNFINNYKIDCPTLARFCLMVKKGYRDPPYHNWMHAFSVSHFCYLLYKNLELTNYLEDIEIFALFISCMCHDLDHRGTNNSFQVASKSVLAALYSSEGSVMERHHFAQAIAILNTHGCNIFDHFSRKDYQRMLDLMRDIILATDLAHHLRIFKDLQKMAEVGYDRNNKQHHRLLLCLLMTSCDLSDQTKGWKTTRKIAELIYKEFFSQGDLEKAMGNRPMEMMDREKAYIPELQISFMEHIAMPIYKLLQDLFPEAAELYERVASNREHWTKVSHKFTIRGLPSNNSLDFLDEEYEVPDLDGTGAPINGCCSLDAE
protocol.summary: PDE2 fluorescence polarization (IMAP FP) inhibition assay, rhesus enzyme
Format: biochemical, rhesus macaque
details: Rhesus PDE2, Lab A; read-out: Rhesus PDE2 Ki (nM) - Lab A
In our notation, the value equals log10 of Ki in nM.

Use the examples below as a reference point.
Cc1ccccc1-c1nc(C(=O)N[C@H](C)c2ccc(C(F)(F)F)cc2)cc(=O)[nH]1 [Example 141]
2.13
Cc1nc(C(=O)N[C@@H](C)c2ccc(OC(F)F)cc2)cc(=O)[nH]1 [Example 56]
3.66
CC(C)[C@@H](NC(=O)c1cc(=O)[nH]c(-c2ncccn2)n1)c1ccc(OC(F)(F)F)c(F)c1 [Example 74]
0.70
Cc1nc(C(=O)NC(C)c2ccc(C(C)C)cc2)cc(=O)[nH]1 (single isomer, unassigned) [Example 306]
3.38
C[C@@H](NC(=O)c1cc(=O)[nH]c(C2CC2)n1)c1ccc2ccccc2c1 [Example 224]
1.60

Query: So what does the record say about log10 Ki for C[C@@H](NC(=O)c1cc(=O)[nH]c(-c2ncccn2)n1)c1cccc(C(F)(F)F)c1 [Example 80] ?
Result: 2.93

Query: Which log10 Ki value is on record for CC(C)(NC(=O)c1cc(=O)[nH]c(-c2ncccn2)n1)c1ccc(C(F)(F)F)c(F)c1 [Example 82] ?
Result: 2.18

Query: // lookup log10 Ki for Cc1nc(C(=O)N[C@@H](c2ccc(S(F)(F)(F)(F)F)cc2)C(C)C)cc(=O)[nH]1 [Example 52]
Result: 0.71

----------
Measured Ki, listed per entry for reference.
subject.of.test: human PDE2A1 (Homo sapiens (Human))
protocol.summary: IMAP FP PDE selectivity panel, human PDE2A1
Type: biochemical
details: Human PDE2, Lab B; read-out: Human PDE2 Ki (nM) - Lab B
Return type: number; implicit unit nM.

CC(C)[C@@H](NC(=O)c1cc(=O)[nH]c(-c2ccccc2)n1)c1ccc(SC(F)(F)F)c(F)c1
3.6
Cc1nc(C(=O)NC(C)c2ccc(C3(C(F)(F)F)CC3)cc2)cc(=O)[nH]1 (single isomer, unassigned) [Example 687]
108
CC(C)(C)[C@@H](NC(=O)c1cc(=O)[nH]c(C2CC2)n1)c1ccc(SC(F)(F)F)cc1
1.3
CC[C@@H](NC(=O)c1cc(=O)[nH]c(Cc2ccc(OC)cc2)n1)c1ccc(SC(F)(F)F)cc1
1.8

Query: What measured Ki goes with C[C@@H](NC(=O)c1cc(=O)[nH]c(-c2ccccc2)n1)c1ccc(N(C)C)cc1 ?
Result: 33

Query: Query (compound): O=C(NC1(c2ccc(SC(F)(F)F)c(F)c2)CC1)c1cc(=O)[nH]c(-c2ccccc2)n1 ; field requested: Ki
Result: 54

Query: Give the measured Ki of CC(C)[C@@H](NC(=O)c1cc(=O)[nH]c(-c2ccccc2)n1)c1ccc(C(F)(F)F)c(F)c1 .
Result: 2.9

Query: Give its Ki value. Item: CCc1nc(C(=O)NC(C)(C)c2ccc(C(F)(F)F)cc2Cl)cc(=O)[nH]1
Result: 3.2

Query: Return reported Ki; argument: C[C@@H](NC(=O)c1cc(=O)[nH]c(-c2ccccc2)n1)c1ccc(Cl)cc1
Result: 41

Query: Can you look up the measured Ki of COc1ccc(Cc2nc(C(=O)N[C@@H](c3ccc(C(F)(F)F)cc3)C(C)(C)C)cc(=O)[nH]2)cc1F for me?
Result: 0.64

Query: Reported Ki for CC(NC(=O)c1cc(=O)[nH]c(C2CC2)n1)c1ccc(C2(C(F)(F)F)CC2)cc1 (single isomer, unassigned) [Example 689] : what is it?
Result: 67

Query: Reported Ki for CC(C)c1ccc(C2(NC(=O)c3cc(=O)[nH]c(-c4ncccn4)n3)CC2)cc1 : what is it?
Result: 32

Query: Could you tell me which Ki is on file for Cc1nc(C(=O)NC(C)(C)c2ccc(C(F)(F)F)cc2)cc(=O)[nH]1 ?
Result: 71

Query: Value lookup for Ki; key = COc1ccc(Cc2nc(C(=O)N[C@@H](c3ccc(S(F)(F)(F)(F)F)cc3)C3CC3)cc(=O)[nH]2)cc1
Result: 2.3

Query: Please report the recorded Ki for Cc1nc(C(=O)N[C@@H](c2ccc(C(F)(F)F)c(F)c2)C2(C)CC2)cc(=O)[nH]1 .
Result: 12

Query: Return reported Ki; argument: C[C@@H](NC(=O)c1cc(=O)[nH]c(C2CC2)n1)c1ccc(C2CC2)cc1
Result: 20
